molecular target: hFASN enzyme (full length) (Homo sapiens); construct: 10 μL hFASN enzyme (full length, 300 ng, purified in house); made in house; test: Fatty Acid Synthase (FASN) inhibition scintillation proximity assay; assay type: biochemical; conditions: read-out: Human FASN % inhibition @ 10 μM, 10 μM test compound
Rule: inhibition at 10 µM of 90% or more gives true; anything lower gives false.

[[record]]
input_smiles = "O=C(C1CC1)N1CCC(CN2C(=O)C3(CC3)N=C2c2ccc(-c3cccnc3)cc2)CC1"
subject_of_test = "hFASN enzyme (full length) (Homo sapiens)"
cat = "false"

[[record]]
input_smiles = "O=C(C1CC1)N1CC[C@@H](CN2C(=O)C3(CCCC3)N=C2c2ccc(-c3ccc(Cl)cc3)cc2)C1"
subject_of_test = "hFASN enzyme (full length) (Homo sapiens)"
cat = "true"

[[record]]
input_smiles = "Cn1ncc2cc(-c3ccc(C4=NC5(CCOCC5)C(=O)N4C[C@@H]4CCN(C(=O)[C@H]5CCCO5)C4)cc3)ccc21"
subject_of_test = "hFASN enzyme (full length) (Homo sapiens)"
cat = "true"

[[record]]
input_smiles = "Cc1cc(-c2ccc3cc(Cl)ccc3c2)ccc1C1=NC2(CC2)C(=O)N1CC1CN(C(=O)C2(C)CC2)C1"
subject_of_test = "hFASN enzyme (full length) (Homo sapiens)"
cat = "true"

[[record]]
input_smiles = "O=C(N1CC(CN2C(=O)C3(CC3)N=C2c2ccc(-c3ccc4ccc(F)cc4c3)cc2F)C1)C1(O)CC1"
subject_of_test = "hFASN enzyme (full length) (Homo sapiens)"
cat = "true"


Asked: Threshold query (inhibition at 10 µM >= 90%) on "O=C(N1CCCC1)N1CC[C@@H](CN2C(=O)C3(CCOCC3)N=C2c2ccc(-c3ccc4cccnc4c3)cc2)C1"
Given back: true

Asked: What do you get for "Cc1cc(-c2cccc(S(=O)(=O)C(C)C)c2)ccc1C1=NC2(CC2)C(=O)N1CC1CN(C(=O)C2CC2)C1" ?
Given back: false

----------
system: LNCaP-Vancouver prostate cells; assay: In vitro LNCaP Vancouver prostate cell proliferation assay in lipid reduced medium; format: cell-based; settings: read-out: pIC50 LNCaP_Vancouver prostate cell (converted)
Observation type: IC50 (nM)
Numbers only, in nM.

Parameter requested: IC50. Apply to each item below.
1. Cn1ncc2cc(-c3ccc(C4=NC5(CC5)C(=O)N4CC4CN(C(=O)C5CC5)C4)cc3)ccc21 [compound 39]
2. O=C(C1CC1)N1CC(CN2C(=O)C3(CC3)N=C2c2ccc(-c3cc4ccccc4cn3)cc2)C1 [compound 531]

Given back:
1: 1050; 2: 1350

----------
test system: LNCaP-Vancouver prostate cells; assay: In vitro LNCaP Vancouver prostate cell proliferation assay in lipid reduced medium; format: cell-based; conditions: read-out: pIC50 LNCaP_Vancouver prostate cell (converted)
Observation type: IC50 (µM)
Answers are plain numbers, in µM.

Parameter requested: IC50. Apply to each item below.
1. Cc1cc(-c2ccc3cc[nH]c3c2)ccc1C1=NC2(CC2)C(=O)N1C[C@@H]1CCN(C(=O)C2CC2)C1
2. COC(=O)N1CC2(C1)N=C(c1ccc(-c3ccc4occc4c3)cc1)N(C[C@@H]1CCN(C(=O)[C@H]3CCCO3)C1)C2=O
3. O=C(C1CC1)N1CC[C@@H](CN2C(=O)C3(CC3)N=C2c2ccc(-c3ccc4c(=O)[nH]ccc4c3)cc2)C1
4. Cc1cc(-c2ccc3c(c2)CCO3)ccc1C1=NC2(CCCC2)C(=O)N1C[C@@H]1CCN(C(=O)C2CC2)C1
5. O=C(C1CC1)N1CC(CN2C(=O)C3(CC3)N=C2c2ccc(-c3nc4ccc(F)cc4s3)cc2F)C1
6. Cc1cc2cc(-c3ccc(C4=NC5(CC5)C(=O)N4CC4CN(C(=O)C5(C)CC5)C4)c(F)c3)ccc2s1
7. COC(=O)N1CC2(C1)N=C(c1ccc(-c3ccc4c(cnn4C)c3)cc1)N(C[C@@H]1CCN(C(=O)[C@H]3CCCO3)C1)C2=O
8. Cn1cc2cc(-c3ccc(C4=NC5(CC5)C(=O)N4CC4CN(C(=O)C5CC5)C4)c(F)c3)ccc2n1

Given back:
1: 0.263; 2: 3.8; 3: 2.88; 4: 3.02; 5: 0.417; 6: 0.562; 7: 3.8; 8: 2.82

----------
Give measured IC50 for each item. Keep answers brief.
molecular target: hFASN enzyme (full length) (Homo sapiens, UniProt P49327); construct: 10 μL hFASN enzyme (full length, 300 ng, purified in house); made in house; test: Fatty Acid Synthase (FASN) inhibition scintillation proximity assay; format: biochemical; settings: read-out: Human FASN pIC50 (converted)
Sequence (P49327 whole entry): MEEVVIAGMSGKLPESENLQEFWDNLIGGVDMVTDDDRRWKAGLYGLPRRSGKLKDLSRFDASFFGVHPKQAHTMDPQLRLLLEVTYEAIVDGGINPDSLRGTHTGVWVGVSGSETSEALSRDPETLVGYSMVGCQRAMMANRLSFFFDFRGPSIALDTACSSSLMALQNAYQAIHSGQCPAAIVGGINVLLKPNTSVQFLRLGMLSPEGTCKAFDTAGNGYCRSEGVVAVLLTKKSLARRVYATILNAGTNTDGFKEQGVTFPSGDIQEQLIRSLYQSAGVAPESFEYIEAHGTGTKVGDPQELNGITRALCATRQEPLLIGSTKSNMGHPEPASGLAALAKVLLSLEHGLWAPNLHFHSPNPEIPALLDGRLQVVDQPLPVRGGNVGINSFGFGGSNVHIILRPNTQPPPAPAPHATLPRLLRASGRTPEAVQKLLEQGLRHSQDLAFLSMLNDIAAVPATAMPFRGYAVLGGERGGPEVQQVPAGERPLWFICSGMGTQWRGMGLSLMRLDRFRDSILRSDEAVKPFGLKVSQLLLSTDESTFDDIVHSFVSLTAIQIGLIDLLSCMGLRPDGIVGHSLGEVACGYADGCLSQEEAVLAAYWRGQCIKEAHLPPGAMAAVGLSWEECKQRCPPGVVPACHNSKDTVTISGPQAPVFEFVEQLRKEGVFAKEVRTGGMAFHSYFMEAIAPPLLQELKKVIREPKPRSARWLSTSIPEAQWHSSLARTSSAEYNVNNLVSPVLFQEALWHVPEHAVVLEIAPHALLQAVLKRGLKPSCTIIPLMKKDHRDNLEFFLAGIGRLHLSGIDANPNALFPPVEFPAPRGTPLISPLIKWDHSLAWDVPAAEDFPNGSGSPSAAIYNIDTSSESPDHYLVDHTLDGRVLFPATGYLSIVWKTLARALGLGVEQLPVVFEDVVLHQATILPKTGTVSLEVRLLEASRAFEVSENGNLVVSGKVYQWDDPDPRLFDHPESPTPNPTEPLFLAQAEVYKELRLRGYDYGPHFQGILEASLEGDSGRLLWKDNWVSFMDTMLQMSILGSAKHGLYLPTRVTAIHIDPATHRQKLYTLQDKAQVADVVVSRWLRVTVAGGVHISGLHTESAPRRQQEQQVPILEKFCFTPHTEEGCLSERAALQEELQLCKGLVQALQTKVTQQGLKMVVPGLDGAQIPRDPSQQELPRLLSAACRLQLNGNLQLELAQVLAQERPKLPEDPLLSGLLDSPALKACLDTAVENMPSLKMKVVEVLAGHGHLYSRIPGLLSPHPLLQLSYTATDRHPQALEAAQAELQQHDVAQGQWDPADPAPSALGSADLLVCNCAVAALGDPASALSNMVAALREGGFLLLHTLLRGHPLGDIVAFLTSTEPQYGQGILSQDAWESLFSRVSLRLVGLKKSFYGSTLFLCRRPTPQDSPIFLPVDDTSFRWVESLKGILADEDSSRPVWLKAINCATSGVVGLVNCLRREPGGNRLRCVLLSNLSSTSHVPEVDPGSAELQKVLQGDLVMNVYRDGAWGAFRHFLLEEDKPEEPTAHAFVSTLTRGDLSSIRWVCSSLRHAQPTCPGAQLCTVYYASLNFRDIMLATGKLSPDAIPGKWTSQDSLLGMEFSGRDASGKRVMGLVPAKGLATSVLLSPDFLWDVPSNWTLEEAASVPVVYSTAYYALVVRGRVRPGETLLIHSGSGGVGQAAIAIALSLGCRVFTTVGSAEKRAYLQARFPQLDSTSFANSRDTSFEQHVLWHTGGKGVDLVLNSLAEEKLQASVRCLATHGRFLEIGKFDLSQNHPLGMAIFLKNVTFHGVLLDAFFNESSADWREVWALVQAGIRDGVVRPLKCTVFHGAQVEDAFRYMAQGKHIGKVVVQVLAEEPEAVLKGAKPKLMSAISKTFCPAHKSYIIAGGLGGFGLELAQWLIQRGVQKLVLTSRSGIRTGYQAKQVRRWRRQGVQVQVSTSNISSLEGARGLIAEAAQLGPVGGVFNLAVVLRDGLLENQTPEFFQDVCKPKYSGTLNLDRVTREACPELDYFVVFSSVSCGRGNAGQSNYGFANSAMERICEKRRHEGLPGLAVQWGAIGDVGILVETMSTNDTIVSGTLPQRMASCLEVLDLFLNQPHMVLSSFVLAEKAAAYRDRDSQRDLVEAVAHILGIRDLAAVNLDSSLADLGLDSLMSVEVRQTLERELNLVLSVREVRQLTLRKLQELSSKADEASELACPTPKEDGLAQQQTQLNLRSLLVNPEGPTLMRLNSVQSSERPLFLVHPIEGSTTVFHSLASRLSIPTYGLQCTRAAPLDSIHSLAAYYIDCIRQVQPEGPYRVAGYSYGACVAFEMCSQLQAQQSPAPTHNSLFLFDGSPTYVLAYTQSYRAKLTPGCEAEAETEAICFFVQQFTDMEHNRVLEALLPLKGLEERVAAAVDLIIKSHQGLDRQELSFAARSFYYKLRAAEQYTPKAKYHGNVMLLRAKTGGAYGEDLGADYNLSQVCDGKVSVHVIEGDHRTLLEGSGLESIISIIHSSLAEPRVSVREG
Numbers only, in nM.

Solved entries (count: 2):
[[record]]
input_smiles = "Nc1cc(-c2ccc(C3=NC4(CC4)C(=O)N3CC3CN(C(=O)C4CC4)C3)cc2)ccc1O"
subject_of_test = "hFASN enzyme (full length) (Homo sapiens, UniProt P49327)"
data_value = 1950

[[record]]
input_smiles = "CC(C)n1cc(-c2ccc(-c3ccc(C4=NC5(CC5)C(=O)N4CC4CN(C(=O)C5CC5)C4)c(F)c3)cc2)cn1"
subject_of_test = "hFASN enzyme (full length) (Homo sapiens, UniProt P49327)"
data_value = 32.4


Now for a further molecule.
Asked: Name the recorded IC50 for "Cn1nc(C(N)=O)c2ccc(-c3ccc(C4=NC5(CC5)C(=O)N4C[C@@H]4CCN(C(=O)C5CC5)C4)cc3)cc21" .
Given back: 97.7

----------
molecular target: hFASN enzyme (full length) (Homo sapiens, UniProt P49327); construct: 10 μL hFASN enzyme (full length, 300 ng, purified in house); made in house; assay: Fatty Acid Synthase (FASN) inhibition scintillation proximity assay; format: biochemical; conditions: read-out: Human FASN pIC50 (converted)
Give measured IC50 for each item. Keep answers brief.
Numbers only, in nM.

[[record]]
molecule = "Cc1cc(-c2ccc3cc(C#N)ccc3c2)ccc1C1=NC2(CC2)C(=O)N1CC1CN(C(=O)C2CCO2)C1 (stereo not shown) [compound 224]"
observation_type = "IC50"
unit_of_measurement = "nM"
data_value = 25.1

[[record]]
molecule = "Cn1nc(Cl)c2ccc(-c3ccc(C4=NC5(CC5)C(=O)N4CC4CN(C(=O)C5CC5)C4)c(F)c3)cc21 [compound 606]"
observation_type = "IC50"
unit_of_measurement = "nM"
data_value = 209

[[record]]
molecule = "Cc1ccc(-c2ccc(C3=NC4(CC4)C(=O)N3CC3CCN(C(=O)C4CC4)CC3)cc2)cc1 [compound 97]"
observation_type = "IC50"
unit_of_measurement = "nM"
data_value = 5620

[[record]]
molecule = "O=C(C1CC1)N1CC[C@@H](CN2C(=O)C3(CCCC3)N=C2c2ccc(-c3ccc4cn[nH]c4c3)cc2F)C1 [compound 879]"
observation_type = "IC50"
unit_of_measurement = "nM"
data_value = 41.7


Parameter requested: IC50. Apply to each item below.
1. COc1ccc(-c2ccc(C3=NC4(CC4)C(=O)N3CC3CCN(C(=O)C4CC4)CC3)cc2)cc1 [compound 99]
2. COC(=O)N1CC2(C1)N=C(c1ccc(-c3ccc(-c4cnn(C)c4)cc3)cc1)N(C[C@@H]1CCN(C(=O)C3CC3)C1)C2=O [compound 725]

Given back:
4680
245

----------
target: hFASN enzyme (full length) (Homo sapiens); construct: 10 μL hFASN enzyme (full length, 300 ng, purified in house); made in house; test: Fatty Acid Synthase (FASN) inhibition scintillation proximity assay; assay type: biochemical; settings: read-out: Human FASN % inhibition @ 10 μM, 10 μM test compound
Observation type: inhibition at 10 µM
Field: value (include unit after the number)

Solved entries (count: 10):
[[record]]
compound = "Cc1cc(-c2ccc3c(cnn3C)c2)ccc1C1=NC2(CC2)C(=O)N1CC1CN(C(=O)C2CC2)C1"
data_value = "100%"

[[record]]
compound = "O=C(N1CC(CN2C(=O)C3(CCOC3)N=C2c2ccc(-c3ccc4cccnc4c3)cc2)C1)C(F)(F)F (centres unmarked)"
data_value = "6%"

[[record]]
compound = "CC(C)n1cc(-c2ccc(-c3ccc(C4=NC5(CC5)C(=O)N4CC4CN(C(=O)C5CC5)C4)c(F)c3)cc2)cn1"
data_value = "104%"

[[record]]
compound = "Cc1cc(-c2cccc(NC(=O)C3CC3)c2)ccc1C1=NC2(CC2)C(=O)N1CC1CN(C(=O)C2CC2)C1"
data_value = "79%"

[[record]]
compound = "Cn1ccc2ccc(-c3ccc(C4=NC5(CC5)C(=O)N4CC4CN(C(=O)C5CC5)C4)cc3)cc21"
data_value = "100%"

[[record]]
compound = "O=C1Cc2cc(-c3ccc(C4=NC5(CC5)C(=O)N4C[C@@H]4CCN(C(=O)C5CC5)C4)cc3)ccc2N1"
data_value = "91%"

[[record]]
compound = "COc1nccc2cc(-c3ccc(C4=NC5(CC5)C(=O)N4C[C@@H]4CCN(C(=O)C5CC5)C4)cc3)ccc12"
data_value = "90%"

[[record]]
compound = "COCc1nn(C)c2cc(-c3ccc(C4=NC5(CC5)C(=O)N4C[C@@H]4CCN(C(=O)C5CC5)C4)cc3)ccc12"
data_value = "99%"

[[record]]
compound = "Cc1c(-c2ccc(C3=NC4(CC4)C(=O)N3CC3CN(C(=O)C4CC4)C3)cc2)ccc2c1cnn2C"
data_value = "100%"

[[record]]
compound = "Cc1cc(-c2cccc(NC(=O)C3CC3)c2)ccc1C1=NC2(CC2)C(=O)N1C[C@@H]1CCN(C(=O)C2CC2)C1"
data_value = "102%"


Parameter requested: inhibition at 10 µM. Apply to each item below.
1. Cc1cc(-c2ccc3[nH]ccc3c2)ccc1C1=NC2(CC2)C(=O)N1CC1CN(C(=O)C2CC2)C1
2. COc1ccc2ccc(-c3ccc(C4=NC5(CC5)C(=O)N4CC4CN(C(=O)C5(O)CC5)C4)c(F)c3)cc2c1
3. Cc1cc(-c2cccc(S(=O)(=O)C3CC3)c2)ccc1C1=NC2(CC2)C(=O)N1CC1CN(C(=O)C2CC2)C1

Given back:
1: 108%; 2: 100%; 3: 64%

Asked: Name the recorded inhibition at 10 µM for "CC(=O)N1CCC2(CC1)N=C(c1ccc(-c3ccc4occc4c3)cc1)N(C[C@@H]1CCN(C(=O)C3CC3)C1)C2=O" .
Given back: 113%
